From: patent US20090191193A1

# melting point listing for each entry below

// worked examples, melting point included
>  <smi>
COc1ccc(OC)c(/C=C(\C#N)S(=O)(=O)Cc2ccccc2)c1

>  <melting point>
140 to 143 °C

$$$$
>  <smi>
COc1ccc(OC)c(/C=C(\C#N)S(=O)(=O)Cc2ccc(Cl)cc2Cl)c1

>  <melting point>
132 to 137 °C

$$$$
>  <smi>
COc1ccccc1/C=C(\C#N)S(=O)(=O)Nc1ccccc1Oc1ccccc1

>  <melting point>
116 to 118 °C

$$$$
>  <smi>
Cc1ccc(/C=C(\C#N)S(=O)(=O)Nc2ccccc2Oc2ccccc2)s1

>  <melting point>
141 to 143 °C

$$$$
>  <smi>
COc1cc(OC)c(/C=C(\C#N)S(=O)(=O)Nc2ccccc2Oc2ccccc2)c(OC)c1

>  <melting point>
154 to 156 °C

$$$$

Next item in the queue.
query: Which melting point value belongs to COc1ccc(CS(=O)(=O)/C(C#N)=C/c2ccc(F)cc2Cl)cc1 ?
result: 138 to 140 °C
